Tested on: tumor cells isolated from CLL patients
measurementProtocol: Ex vivo cell viability (Cell Titer-Glo) of mononuclear cells isolated from CLL patient blood
Type: cell-based, human
testConditions: Homo sapiens; newly diagnosed patient who had not received previous treatment, 48 hour treatment
propertyMeasured: pIC50
// pIC50 here means minus log10 of the molar concentration (mol/L)

Entry Nc1nc(F)nc2c1ncn2[C@@H]1O[C@H](CO)[C@@H](O)[C@@H]1O : reported pIC50 = ?
6.25
